The measured values listed here are drawn from patent US20260242478A1.

TARGET_ENTITY: T1, PSMA Fab (biotinylated (site not stated))
T1 construct: also called Anti-PSMA Fab; 006 PSMA Fab
ASSAY_INFO: clonal phage ELISA; biotinylated PSMA Fab on neutravidin plate, blocking buffer alone, anti-M13-HRP detection;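 further: crude clonal phage supernatants added without washing to wells preincubated with PSMA antigen or with blocking buffer alone, briefly incubated, then washed before bound phage detection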
Where no end group is shown, it is not given here.
READOUT_NAME: Phage binding ELISA signal, Anti-PSMA Fab

Quick check: Phage binding ELISA signal, Anti-PSMA Fab of IAKWCTPPWMCADN (cysteine pairing not given here; also: displayed on bacteriophage as fusion to pIII) [Phage-2676] ?
0.876

Repeat for the following binder: DWKWCTPAWMCTQT [Phage-2673]
0.877

Repeat for the following binder: ITKLCTPPWMCMDV [Phage-2668]
0.886

Repeat for the following binder: AGHWCIPMWMCQED [Phage-2679]
0.874

Repeat for the following binder: EEKWCIPYWMCEAV [Phage-2669]
0.885

Repeat for the following binder: SGNWCTPSWMCTGF [Phage-2677]
0.874

Repeat for the following binder: NVIRCEPMWMCYPS (cysteine pairing not given here; also: displayed on bacteriophage as fusion to pIII) [Phage-2678]
0.874

Repeat for the following binder: PPKWCIPAWMCAGM (cysteine pairing not given here; also: displayed on bacteriophage as fusion to pIII) [Phage-2666]
0.895

Repeat for the following binder: VTNWCIPEWMCNGN [Phage-2667]
0.894

Repeat for the following binder: AGKLCIPNWMCEEQ [Phage-2670]
0.884

Repeat for the following binder: EHKWCIPDWMCWED [Phage-2675]
0.876

Repeat for the following binder: QEKWCIPEWMCSVR [Phage-2672]
0.879

Repeat for the following binder: LDMLCIPAWMCEPR [Phage-2674]
0.877

Repeat for the following binder: WDNWCTPSWMCSEL [Phage-2671]
0.883
